Origin of values: PubChem BioAssay (NCI)

Test system: UACC-62 melanoma
Assay: NCI tumour cell line growth inhibition, 48 h
assay metric: TGI

[
  {
    "compound": "CNc1ncnc2c1nnn2C",
    "measured target": "UACC-62 melanoma",
    "TGI": "> 100 µM"
  },
  {
    "compound": "COC(=O)c1c(O)ccc2c1c1c(n2Cc2ccccn2)C(=O)c2ccccc2C1=O",
    "measured target": "UACC-62 melanoma",
    "TGI": "> 100 µM"
  },
  {
    "compound": "COc1ccc(CCNC(=O)CCCCCO)cc1OC",
    "measured target": "UACC-62 melanoma",
    "TGI": "> 100 µM"
  },
  {
    "compound": "COc1ccc(S(=O)(=O)Nc2ccc(-c3csc(N4C(=O)/C(=C/c5ccccc5)N=C4c4ccccc4)n3)cc2)cc1Cl",
    "measured target": "UACC-62 melanoma",
    "TGI": "> 100 µM"
  },
  {
    "compound": "COc1cc([C@@H]2c3cc4c(cc3[C@@H](N=Cc3ccc(C(=O)O[C@@H](C(=O)O[C@H]5C[C@@]6(O)[C@@H](OC(=O)c7ccccc7)[C@@H]7[C@]8(OC(C)=O)CO[C@@H]8C[C@H](O)[C@@]7(C)C(=O)[C@H](OC(C)=O)C(=C5C)C6(C)C)[C@@H](NC(=O)c5ccccc5)c5ccccc5)cc3)[C@H]3COC(=O)[C@H]23)OCO4)cc(OC)c1O",
    "measured target": "UACC-62 melanoma",
    "TGI": "> 50 µM"
  },
  {
    "compound": "C/C(CC(=O)Nc1ccc(Cl)cc1)=N\\NC(=O)C[n+]1ccccc1",
    "measured target": "UACC-62 melanoma",
    "TGI": "> 100 µM"
  },
  {
    "compound": "COc1ccc(NCc2cnc3nc(N)nc(N)c3c2C)cc1",
    "measured target": "UACC-62 melanoma",
    "TGI": "> 100 µM"
  },
  {
    "compound": "COc1ccc2nc(NCN3C(=O)c4ccccc4C3=O)sc2c1",
    "measured target": "UACC-62 melanoma",
    "TGI": "> 100 µM"
  },
  {
    "compound": "CSC1(SC)N2Cc3ccccc3N=C2C1(c1ccccc1)c1ccccc1",
    "measured target": "UACC-62 melanoma",
    "TGI": "> 55.3 µM"
  },
  {
    "compound": "CC(C)(O)[C@@H]1CC[C@@]2(C)CCC[C@H](O)[C@H]2C1",
    "measured target": "UACC-62 melanoma",
    "TGI": "> 100 µM"
  }
]

For every listed record, write down its TGI.
1. N#Cc1ccc(Nc2cnc3ccc(N)cc3n2)cc1
2. COc1c2c(c(CC=C(C)C)c3oc(=O)c(-c4ccc(O)cc4)c(O)c13)OC(C)(C)C=C2

Reply |
> 100 µM
46.6 µM

For every listed record, write down its TGI.
1. CN(C)CCNC(=O)c1cccc2[nH]c(-c3ccncc3)nc12
2. CCO/C=C1\N=C(C(Cl)c2ccccc2)OC1=O (stereo not drawn)
3. O=C(O)C(C(=O)C(=O)C(C(=O)O)c1ccc(Cl)cc1)c1ccc(Cl)cc1 (stereo not drawn)

Reply |
1. 10.8 µM
2. > 100 µM
3. 3.91 µM
